TARGET DESC: APP-Avi-soluble human LOX-1(61-273) (human, UniProt P78380 61-273)
ASSAY NOTES: SET, IgG vs soluble human LOX-1
MEASURED PROPERTY: Kd

1. MOR021465 (antibody, V domains shown, IgG (human IgG1f LALA); parent MOR20144 with the printed HCDR2 stretch exchanged) VH: QVQLLESGGGLVQPGGSLRLSCAASGFTFSDYALHWVRQAPGKGLEWVSVISYQGAFIYYADSVKGRFTISRDNSKNTLYLQMNSLRAEDTAVYYCARSPGLTSYHDSWGQGTLVTVSS VL: DIVLTQPPSVSGAPGQRVTISCSGSSSNIGSNYVSWYQQLPGTAPKLLIHSNSHRPSGVPDRFSGSKSGTSASLAITGLQAEDEADYYCQSWDYESERVVFGGGTKLTVLG	1.6 pM
2. MOR021445 (antibody, V domains shown, IgG (human IgG1f LALA); parent MOR20133 with the printed HCDR2 stretch exchanged) VH: QVQLVQSGAEVKKPGESLKISCKGSGYSFTNYWIAWVRQMPGKGLEWMGAIRPEWSETKYSPSFQGQVTISADKSISTAYLQWSSLKASDTAMYYCARGKRGATHPTQYEGWEVYGFDPWGQGTLVTVSS VL: DIELTQPPSVSVSPGQTASITCSGDALGGKYASWYQQKPGQAPVLVIYDDNKRPSGIPERFSGSNSGNTATLTISGTQAEDEADYYCQSWAFYSGVFGGGTKLTVLG	30 pM
3. MOR021466 (antibody, V domains shown, IgG (human IgG1f LALA); parent MOR20144 with the printed HCDR2 stretch exchanged) VH: QVQLLESGGGLVQPGGSLRLSCAASGFTFSDYALHWVRQAPGKGLEWVSVISYMGGFKFYADSVKGRFTISRDNSKNTLYLQMNSLRAEDTAVYYCARSPGLTSYHDSWGQGTLVTVSS VL: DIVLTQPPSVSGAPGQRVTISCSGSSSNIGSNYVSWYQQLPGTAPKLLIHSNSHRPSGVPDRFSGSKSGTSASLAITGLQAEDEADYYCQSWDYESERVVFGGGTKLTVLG	0.6 pM
